# credit: patent US8865734B2

// reported melting point for each item listed

Here is how some compounds turned out for melting point.
CCc1nc2cc(C)ccn2c1C(=O)NCc1ccc(N2CCN(c3ccc(F)cc3)CC2)cc1 [Compound 309] :: 203.7 °C
CCc1nc2cc(Cl)ccn2c1C(=O)NCc1ccc(N2CCOCC2)cc1 [Compound 89] :: 195 °C
CCc1nc2c(F)cccn2c1C(=O)NCc1ccc(Oc2ccc(OC(F)(F)F)cc2)cc1 [Compound 257] :: 105.6 °C
CCc1nc2ccc(Cl)cn2c1C(=O)NCc1ccc(N2CCN(c3ccc(OC(F)(F)F)cc3)CC2)cc1 [Compound 178] :: 206.5 to 207 °C
CCc1nc2ccc(Cl)cn2c1C(=O)NCc1ccc(N2CCC(O)(c3ccc(F)cc3)CC2)cc1 [Compound 341] :: 173.5 °C

Task: Which value of melting point has been reported for CCc1nc2ccc(Cl)cn2c1C(=O)NCc1ccc(N2CCC(CO)CC2)cc1 [Compound 279] in the records?
Result: 161.1 °C

Task: Which value of melting point has been reported for CCc1nc2cc(C)ccn2c1C(=O)NCc1ccc(Oc2ccc(OC(F)(F)F)cc2)cc1 [Compound 256] in the records?
Result: 133.6 °C

Task: Which value of melting point has been reported for CCc1nc2cc(Cl)ccn2c1C(=O)NCc1ccc(N2CCC(COc3ccc(F)cc3)CC2)cc1 [Compound 297] in the records?
Result: 186.5 °C

====

// reported melting point for each item listed
Expressed in °C, but write only the number.

Here is how some compounds turned out for melting point.
CCc1nc2cc(Cl)ccn2c1C(=O)NCc1ccc(N2CCC(c3ccc(F)cc3)CC2)cc1 :: 182.7
CCc1nc2cc(Cl)ccn2c1C(=O)NCc1ccc(N2CCC(F)(F)CC2)cc1 :: 166.3
CCc1nc2ccc(Cl)cn2c1-c1nc(Cc2ccc(Oc3ccc(F)cc3)cc2)no1 :: 129.9
CCc1nc2cc(Cl)ccn2c1C(=O)NCc1ccc(N2CCC(c3ccc(Cl)cc3)CC2)cc1 :: 177
CCc1nc2ccc(Cl)cn2c1C(=O)NCc1ccc(N2CCC(COC)CC2)cc1 :: 162.1

Task: Which value of melting point has been reported for CCc1nc2cc(Cl)ccn2c1C(=O)NCc1ccc(N2CCC(O)(c3ccc(F)cc3)CC2)cc1 in the records?
Result: 199

Task: Which value of melting point has been reported for CCc1nc2cc(Cl)ccn2c1C(=O)NCc1ccc2oc(C3CCCCC3)nc2c1 in the records?
Result: 163

Task: Which value of melting point has been reported for CCc1nc2ccccn2c1C(=O)NCc1ccc(/N=C/c2ccc(OC(F)(F)F)cc2)cc1 in the records?
Result: 194

Task: Which value of melting point has been reported for CCNC(=O)c1c(CC)nc2ccc(Cl)cn12 in the records?
Result: 176.7

Task: Which value of melting point has been reported for CCc1nc2ccccn2c1C(=O)NCc1ccc(N2CCC(c3ccc(OC(F)(F)F)cc3)CC2)cc1 in the records?
Result: 146

====

result type: melting point (°C)
Expressed in °C, but write only the number.

Here is how some compounds turned out for melting point.
CCc1nc2cc(Cl)ccn2c1C(=O)NCc1ccc(N2CCC(COc3ccc(OC(F)(F)F)cc3)CC2)cc1 :: 189.5
CCc1nc2cc(Cl)ccn2c1C(=O)NCc1ccc(N2CCC(C(N)=O)CC2)cc1 :: 244
CCc1nc2ccccn2c1C(=O)NCc1ccc(OCc2ccc(OC(F)(F)F)cc2)cc1 :: 138.7
CCc1nc2cc(Cl)ccn2c1C(=O)NCc1ccc(N2CCC(C(F)(F)F)CC2)cc1 :: 209.4
CCc1nc2cc(Cl)ccn2c1C(=O)NCc1ccc(N2CCC(COC)CC2)cc1 :: 172.5
CCc1nc2ccc(Cl)cn2c1C(=O)NCc1ccc(N2CCC(C(F)(F)F)CC2)cc1 :: 197.9

Task: Which value of melting point has been reported for CCc1nc2c(C(F)(F)F)cccn2c1C(=O)NCc1ccc(N2CCOCC2)cc1 in the records?
Result: 200.6

Task: Which value of melting point has been reported for CCc1nc2c(F)cccn2c1C(=O)NCc1ccc(N2CCOCC2)cc1 in the records?
Result: 197.3

Task: Which value of melting point has been reported for CCc1nc2ccccn2c1C(=O)NCc1ccc(N2CCN(c3ccc(F)cc3)CC2)cc1 in the records?
Result: 189.2

Task: Which value of melting point has been reported for CCc1nc2cc(N3CCN(c4ccccc4)CC3)ccn2c1C(=O)NCc1ccc(C(F)(F)F)cc1 in the records?
Result: 235.2

====

Structures can show the parent of a compound that is named as a salt.
result type: melting point

Here is how some compounds turned out for melting point.
CCc1nc2cc(Cl)ccn2c1C(=O)NCc1ccc(N2CCN(c3ccc(F)cc3)CC2)cc1 (as salt: hydrochloride) [Compound 177, trihydrochloride] :: 204.4 to 206.9 °C
CCc1nc2cc(Cl)ccn2c1C(=O)NCc1ccc(N2C=CC(=O)CC2)cc1 [Compound 270] :: 201.3 to 202.8 °C
CCc1nc2cc(Cl)ccn2c1C(=O)NCc1ccc(N2CCC(Oc3ccc(F)cc3)CC2)cc1 [Compound 167] :: 138 to 139 °C
CCc1nc2ccc(Cl)cn2c1C(=O)NCc1ccc(C(F)(F)F)cc1 [Compound 147] :: 179 to 180 °C
CCc1nc2ccc(Cl)cn2c1C(=O)NCC1CCN(Cc2ccc(F)cc2)CC1 [Compound 227] :: 176 to 177 °C
CCc1nc2cc(Cl)ccn2c1C(=O)NCc1ccc(N2CCC(O)CC2)cc1 [Compound 218] :: 179.1 to 180 °C
CCc1nc2ccc(Cl)cn2c1C(=O)NCc1ccc(Oc2ccc(Cl)cc2)cc1 [Compound 190] :: 159 to 160.7 °C
CCc1nc2ccc(Cl)cn2c1C(=O)NC1CCN(Cc2ccc(OC(F)(F)F)cc2)CC1 [Compound 229] :: 157 to 158 °C

Consider now this further compound.
Task: Which value of melting point has been reported for CCc1nc2c[n+]([O-])ccn2c1C(=O)NCc1ccc(OC(F)(F)F)cc1 [Compound 156] in the records?
Result: 215 to 216 °C

====

result type: melting point

Here is how some compounds turned out for melting point.
CCc1nc2ccc(Cl)cn2c1C(=O)NCC1CCN(Cc2ccc(OC(F)(F)F)cc2)CC1 :: 171 to 172 °C
CCc1nc2ccc(Cl)cn2c1C(=O)NCc1ccc(N2CCCC2)cc1 :: 222 to 223 °C

Consider now this further compound.
Task: Which value of melting point has been reported for CCc1nc2cc(Cl)ccn2c1C(=O)NCC1CCN(Cc2ccc(OC(F)(F)F)cc2)CC1 in the records?
Result: 145 to 146 °C

====

result type: melting point

Here is how some compounds turned out for melting point.
CCc1nc2cc(Cl)ccn2c1C(=O)NCc1ccc(N2CCN(c3ccc(F)cc3)CC2)cc1 [Compound 176] :: 212 to 213 °C
CCc1nc2ccc(Cl)cn2c1C(=O)OCc1ccc(Oc2ccccc2)cc1 :: 123.3 to 123.8 °C

Consider now this further compound.
Task: Which value of melting point has been reported for CCc1nc2ccc(Cl)cn2c1C(=O)NCCc1ccc(Cl)cc1 in the records?
Result: 158 to 159 °C

====

// reported melting point for each item listed
Expressed in °C, but write only the number.

Here is how some compounds turned out for melting point.
CCc1nc2ccc(Cl)cn2c1C(=O)NCc1ccc2oc(C3CCCCC3)nc2c1 :: 169.7
CCc1nc2cc(Cl)ccn2c1C(=O)NCc1ccc(N2CCCCC2C)cc1 (stereo not shown) :: 117.9
CCc1nc2cc(Cl)ccn2c1C(=O)NCc1ccc(NCc2ccc(OC(F)(F)F)cc2)cc1 :: 169.6

Consider now this further compound.
Task: Which value of melting point has been reported for CCc1nc2c[n+]([O-])ccn2c1C(=O)NCc1ccc(-c2ccc(Cl)cc2)cc1 in the records?
Result: 238

====

// reported melting point for each item listed

CCc1nc2ccc(Cl)cn2c1CNc1ccc(N2CCN(c3ccc(F)cc3)CC2)cc1 :: 191 to 192 °C
CCc1nc2ccc(Cl)cn2c1CNc1ccc(Oc2ccc(F)cc2)cc1 :: 148.6 to 148.8 °C
CCc1nc2ccc(Cl)cn2c1C(=O)NCc1ccc(N2CCN(Cc3ccc(OC(F)(F)F)cc3)CC2)cc1 :: 138.1 to 138.7 °C
CCc1nc2ccccn2c1C(=O)NCc1ccc(N2CCN(c3ccc(OC(F)(F)F)cc3)CC2)cc1 :: 178 to 179 °C
CCc1nc2cnccn2c1C(=O)NCc1ccc(OC(F)(F)F)cc1 :: 176 to 177 °C
CCc1nc2ccc(Cl)cn2c1C(=O)NCc1ccc(N2CC(C)OC(C)C2)cc1 (stereo not shown) :: 176 to 177 °C

Task: Which value of melting point has been reported for CCc1nc2ccc(Cl)cn2c1COc1ccc(OC(F)(F)F)cc1 in the records?
Result: 127 to 128 °C

Task: Which value of melting point has been reported for CCc1nc2cc(Cl)ccn2c1C(=O)NCc1ccc(N2CC(C)OC(C)C2)cc1 (stereo not shown) in the records?
Result: 165 to 166 °C

Task: Which value of melting point has been reported for CCc1nc2ccc(Cl)cn2c1C(=O)NCCc1ccc(OC)cc1 in the records?
Result: 129 to 130 °C

Task: Which value of melting point has been reported for CCc1nc2cc(Cl)ccn2c1C(=O)NCc1ccc(N2CC(C)CC(C)C2)cc1 (stereo not shown) in the records?
Result: 181.5 to 182.8 °C

Task: Which value of melting point has been reported for CCc1nc2ccc(Cl)cn2c1-c1nc(Cc2ccc(OC(F)(F)F)cc2)no1 in the records?
Result: 146.4 to 146.9 °C

Task: Which value of melting point has been reported for CCc1nc2cc(Cl)ccn2c1C(=O)NCc1ccc(N2CCN(Cc3ccc(F)cc3)CC2)cc1 in the records?
Result: 141 to 142 °C

Task: Which value of melting point has been reported for CCc1nc2cc(Cl)ccn2c1C(=O)NCc1ccc(Oc2ccc(Cl)cc2)cc1 in the records?
Result: 167.1 to 167.9 °C
